SYSTEM NAME: hQC (Homo sapiens)
ASSAY COMMENT: Inhibitor assay for glutaminyl cyclase activity (fluorometric, H-Gln-βNA / H-Gln-AMC)
Assay type: biochemical
PROTOCOL CONDITIONS: read-out: IC50
pIC50: −log10 of the molar value.
The label depends only on pIC50: class 1 if it is at least 6, class 0 if it is smaller.

Quick check: does O=C1C(O)=C(c2ccc(O)cc2)C(c2ccc3[nH]ccc3c2)N1CCCn1ccnc1 (stereo not drawn) [Compound 155] have pIC50 greater than or equal to 6?
class 1

Given CCCCCC(=O)C1=C(O)C(=O)N(c2ccc3[nH]cnc3c2)C1c1ccc(C)o1 (stereo not drawn) [Compound 258] , state whether its pIC50 is at least 6.
class 0

Quick check, pIC50 >= 6? CCCCCC1=C(O)C(=O)N(CCCn2ccnc2)C1C(O)CO (stereo not drawn) [Compound 189]
class 1

Threshold query (pIC50 >= 6) on CC1C(c2c[nH]c3ccccc23)=C(O)C(=O)N1CCCn1ccnc1 (stereo not drawn) [Compound 125]
class 1

Has O=C1C(O)=C(c2c[nH]c3ccccc23)C(C2CC2)N1CCCn1ccnc1 (stereo not drawn) [Compound 139] a recorded pIC50 greater than or equal to 6?
class 1

Please tell me: is the compound CC(C)CC(=O)C1=C(O)C(=O)N(c2ccc3[nH]cnc3c2)C1c1c(F)c(F)cc(F)c1F (stereo not drawn) [Compound 423] at or over 6 in terms of pIC50?
class 1

Textbook exercise: given the entry CC1=C(O)C(=O)N(CCCn2ccnc2)C1c1ncc[nH]1 (stereo not drawn) [Compound 40] , state whether its pIC50 is greater than or equal to 6.
class 0

Kindly determine if pIC50 recorded for O=C1C(O)=C(c2ccccc2)C(c2c[nH]c3ccccc23)N1CCCn1ccnc1 (stereo not drawn) [Compound 97] is above or exactly 6.
class 1

----------
Items are presented alongside their recorded pIC50.
SYSTEM NAME: hQC (Homo sapiens, UniProt Q16769)
Sequence (Q16769 29-361): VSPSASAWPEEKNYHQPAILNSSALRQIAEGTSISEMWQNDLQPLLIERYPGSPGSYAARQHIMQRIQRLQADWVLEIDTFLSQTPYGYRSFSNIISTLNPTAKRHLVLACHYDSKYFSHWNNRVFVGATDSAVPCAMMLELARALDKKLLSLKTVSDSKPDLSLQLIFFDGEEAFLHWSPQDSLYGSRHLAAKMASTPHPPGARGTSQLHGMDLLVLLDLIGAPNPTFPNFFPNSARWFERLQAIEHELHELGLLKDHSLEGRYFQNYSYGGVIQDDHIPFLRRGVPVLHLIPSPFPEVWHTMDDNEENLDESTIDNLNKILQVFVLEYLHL
ASSAY COMMENT: Inhibitor assay for glutaminyl cyclase activity (fluorometric, H-Gln-βNA / H-Gln-AMC)
Format: biochemical
PROTOCOL CONDITIONS: read-out: IC50
On this scale, pIC50 is minus log10 of a concentration expressed in M (mol/L).

Examples with answers:
hQC (Homo sapiens, UniProt Q16769) data for O=C1C(O)=C(c2c[nH]c3ccccc23)C(c2cnc3ccccc3c2)N1c1ccc2[nH]cnc2c1 (centres unmarked) ; its pIC50: 8.40

The reported pIC50 value, hQC (Homo sapiens, UniProt Q16769), for CCCC(=O)C1=C(O)C(=O)N(c2ccc3[nH]cnc3c2)C1CCC(=O)O (centres unmarked) reads 5.18

Note to self: pIC50 of Cc1ccc(C2C(C(C)C)=C(O)C(=O)N2CCCn2ccnc2)cc1 (centres unmarked) with hQC (Homo sapiens, UniProt Q16769) was 6.40

Tested on hQC (Homo sapiens, UniProt Q16769), the item CC(C)C1=C(O)C(=O)N(c2ccc3[nH]cnc3c2)C1c1ccsc1 (centres unmarked) showed pIC50 equal to 5.39

# lookup: CCCCCC1C(C)=C(O)C(=O)N1CCCn1ccnc1 (centres unmarked) on hQC (Homo sapiens, UniProt Q16769), pIC50 = 6.40

The molecule Cc1ccc(C2C(c3c[nH]c4ccccc34)=C(O)C(=O)N2CCCn2ccnc2)o1 (centres unmarked) , when measured on hQC (Homo sapiens, UniProt Q16769), yielded pIC50 of 6.40

Others:
With hQC (Homo sapiens, UniProt Q16769) as the test system, O=C1C(O)=C(c2ccccc2)C(C(O)CO)N1CCCn1ccnc1 (centres unmarked) showed pIC50 of 5.51

With hQC (Homo sapiens, UniProt Q16769) as the test system, CCCCCC1=C(O)C(=O)N(CCCn2ccnc2)C1c1ccncc1 (centres unmarked) showed pIC50 of 7.40

----------
SYSTEM NAME: hQC (Homo sapiens, UniProt Q16769)
ASSAY COMMENT: Inhibitor assay for glutaminyl cyclase activity (fluorometric, H-Gln-βNA / H-Gln-AMC)
Format: biochemical
PROTOCOL CONDITIONS: read-out: IC50
Reported log10 IC50 values for the following molecules.
Note the log scale: values are log10 of IC50 expressed in nM.

Worked set:
Entry CC(C)(C)C(=O)C1=C(O)C(=O)N(c2ccc3[nH]cnc3c2)C1c1c(F)c(F)cc(F)c1F (centres unmarked) , tested on hQC (Homo sapiens, UniProt Q16769), has a reported log10 IC50 of 3.93

The molecule CC(=O)C1=C(O)C(=O)N(c2ccc3[nH]cnc3c2)C1c1cccc(Cl)c1 (centres unmarked) , when measured on hQC (Homo sapiens, UniProt Q16769), yielded log10 IC50 of 2.11

Form: item CC(C)C1=C(O)C(=O)N(CCCn2ccnc2)C1c1ccc2[nH]ccc2c1 (centres unmarked) ; test system hQC (Homo sapiens, UniProt Q16769); log10 IC50: 3.49

---
Field log10 IC50 (system: hQC (Homo sapiens, UniProt Q16769)) for entry CCC1=C(O)C(=O)N(c2ccc3[nH]cnc3c2)C1c1cc(F)cc(F)c1F (centres unmarked) = 3.17

The value of log10 IC50 recorded for CCCCCC1C(c2cccc(O)c2)=C(O)C(=O)N1CCCn1ccnc1 (centres unmarked) when tested on hQC (Homo sapiens, UniProt Q16769) reads 2.60

Tested system hQC (Homo sapiens, UniProt Q16769); log10 IC50 recorded for O=C1C(O)=C(c2c[nH]c3ccccc23)C(c2ccncc2)N1CCCn1ccnc1 (centres unmarked) was 1.60

Param item: CC(C)C1=C(O)C(=O)N(CCCn2ccnc2)C1c1ccc(CO)o1 (centres unmarked) ; param system: hQC (Homo sapiens, UniProt Q16769); output log10 IC50: 3.49

Query CC1=C(O)C(=O)N(CCCn2ccnc2)C1/C=C/C(C)C (centres unmarked) on hQC (Homo sapiens, UniProt Q16769); log10 IC50 returned: 3.76

The reported hQC (Homo sapiens, UniProt Q16769) log10 IC50 of CCCCCC1=C(O)C(=O)N(c2ccc3[nH]cnc3c2)C1c1ccco1 (centres unmarked) is 3.67

Recorded log10 IC50 for CCC1=C(O)C(=O)N(CCCn2ccnc2)C1Cc1ccccc1 (centres unmarked) on hQC (Homo sapiens, UniProt Q16769) was 3.34

Bench note, hQC (Homo sapiens, UniProt Q16769): entry O=C(C1=C(O)C(=O)N(c2ccc3[nH]cnc3c2)C1c1cc[nH]n1)C1CCCCC1 (centres unmarked) , its log10 IC50 = 3.72

Observed log10 IC50, hQC (Homo sapiens, UniProt Q16769), CCC(C)C1C(F)=C(O)C(=O)N1CCCn1ccnc1 (centres unmarked) : 3.49

Tested on hQC (Homo sapiens, UniProt Q16769), the item O=C1C(O)=C(c2ccc(O)cc2)C(c2ccc3cccc(O)c3n2)N1c1ccc2[nH]cnc2c1 (centres unmarked) showed log10 IC50 equal to 1.60

// log10 IC50 (hQC (Homo sapiens, UniProt Q16769)) for CCCCCC1=C(O)C(=O)N(CCCn2ccnc2)C1c1ccc(O)cc1 (centres unmarked) = 1.60

Sample CCC1=C(O)C(=O)N(CCCn2ccnc2)C1c1c[nH]c2cc(C)ccc12 (centres unmarked) , system: hQC (Homo sapiens, UniProt Q16769). Its log10 IC50 is 2.60

Entry O=C(C1=C(O)C(=O)N(c2ccc3[nH]cnc3c2)C1c1ccc(CO)o1)c1ccsc1 (centres unmarked) : log10 IC50 on hQC (Homo sapiens, UniProt Q16769) = 3.31

Tested on hQC (Homo sapiens, UniProt Q16769): CCC1=C(O)C(=O)N(CCCn2ccnc2)C1c1cc[nH]n1 (centres unmarked) . Observed log10 IC50: 3.11

Response field log10 IC50 (hQC (Homo sapiens, UniProt Q16769)) for item CC(=O)C1=C(O)C(=O)N(c2ccc3[nH]cnc3c2)C1c1ccc(CO)o1 (centres unmarked) : 0.60

Field log10 IC50 (system: hQC (Homo sapiens, UniProt Q16769)) for entry O=C1C(O)=C(c2cccc(O)c2)C(c2cc[nH]n2)N1c1ccc2[nH]cnc2c1 (centres unmarked) = 3.99

Tested system hQC (Homo sapiens, UniProt Q16769); log10 IC50 recorded for Cc1ccc2c(C3C(c4c[nH]c5ccccc45)=C(O)C(=O)N3c3ccc4[nH]cnc4c3)c[nH]c2c1 (centres unmarked) was 3.98

The molecule O=C1C(O)=C(c2ccc(O)cc2)C(c2ccco2)N1CCCn1ccnc1 (centres unmarked) , tested on hQC (Homo sapiens, UniProt Q16769), showed log10 IC50 of 1.60

Query CC(C)/C=C/C1C(c2ccccc2)=C(O)C(=O)N1CCCn1ccnc1 (centres unmarked) on hQC (Homo sapiens, UniProt Q16769); log10 IC50 returned: 3.83

log10 IC50 for hQC (Homo sapiens, UniProt Q16769) with input COc1ccc(C2C(c3ccc(O)cc3)=C(O)C(=O)N2CCCn2ccnc2)cc1 (centres unmarked) equals 1.60

Tested on hQC (Homo sapiens, UniProt Q16769), the item CCC1=C(O)C(=O)N(c2ccc3[nH]cnc3c2)C1c1cc(C)ccc1O (centres unmarked) showed log10 IC50 equal to 2.83

The measured log10 IC50 that CC(=O)C1=C(O)C(=O)N(c2ccc3[nH]cnc3c2)C1c1cc(Br)ccc1F (centres unmarked) showed for hQC (Homo sapiens, UniProt Q16769) is 0.60

Kindly note: hQC (Homo sapiens, UniProt Q16769), O=C1C(O)=C(c2c[nH]c3ccccc23)C(c2c[nH]c3ccccc23)N1CCCn1ccnc1 (centres unmarked) , log10 IC50 value reported: 2.60
